Quick reference: %Inh of the listed items.
Test system: CASK
Details: concentration: 1 μM, replicates: in singlicate; n = 1;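 further: KINOMEscan kinase panel screen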
All answers are understood in %, so give the number only.

Looking up "[2H]C([2H])(c1cccc(C(F)(F)F)c1C)n1ccn2c(=O)nc(N3CCOCC3)cc12" , I see its %Inh listed as 8

Next molecule, %Inh to be filled in.
Looking up "Cc1ccc(NC(=O)c2ccnc(N3CCN(C)CC3)c2)cc1-c1ccc(C(=O)NCC2CC2)cc1" , I see its %Inh listed as 10

====

Tested on: MAP3K1
Settings: concentration: 1 μM, replicates: in singlicate; n = 1
Quick reference: %Inh of the listed items.
All answers are understood in %, so give the number only.

Looking up "C[C@@H](Oc1cc(-n2cnc3ccc(NC(=O)NC(C)(C)C)cc32)sc1C(N)=O)c1ccccc1Cl" , I see its %Inh listed as 35

Next:
Looking up "CSc1ccc(-c2cc3ncnc(SCC(=O)O)c3s2)cc1" , I see its %Inh listed as 0

Looking up "Cc1ccc(C(=O)NCC(N)=O)cc1-n1c(C)cc(OCc2ccc(F)cc2F)c(Br)c1=O" , I see its %Inh listed as 0

Looking up "COc1cc2ncn(-c3cc(OCc4sccc4Cl)c(C(N)=O)s3)c2cc1OC" , I see its %Inh listed as 88

Looking up Cc1nnc(-c2ccc3occ(-c4ccc(C(C)O)cc4)c3c2)o1 (centres unmarked) , I see its %Inh listed as 10

Looking up NCC(NC(=O)c1cc(-c2cn[nH]c2)c(-c2ccnc3[nH]ccc23)s1)c1ccccc1.O=C(O)C(F)(F)F.O=C(O)C(F)(F)F (centres unmarked) , I see its %Inh listed as 12

Looking up "CCCCCc1nc2c(N)ncnc2n1CCCCC" , I see its %Inh listed as 18

Looking up "Fc1ccc(-c2nn3c(OCC(F)(F)F)cccc3c2-c2ccncc2)cc1" , I see its %Inh listed as 0

Looking up "O=C(NCCNc1ccnc(Nc2ccc(F)cc2)n1)Nc1ccccc1F" , I see its %Inh listed as 0

Looking up "CCn1cnc2c(N)ncnc21" , I see its %Inh listed as 18

Looking up "Fc1ccc(-c2ncn(CCCN3CCOCC3)c2-c2cccnc2)cc1" , I see its %Inh listed as 7

====

Tested on: TSSK3
Conditions: concentration: 1 μM, replicates: in singlicate; n = 1
Each record is given Yes if its reported %Inh is strictly below 1%. Records at or above 1% are given No.

Please review the following examples before continuing.
Input: In plain terms, does "COc1cc2c(cc1OCCN1CCN(C)CC1)ncc1c3ccc(C#N)cc3[nH]c21" come in under 1% for %Inh?
Output: No

Input: In plain terms, does "Fc1ccc(-c2ncn(CCCN3CCOCC3)c2-c2ccccn2)cc1" come in under 1% for %Inh?
Output: Yes

Input: In plain terms, does "N#Cc1c(N2CCOCC2)sc(-c2ccn[nH]2)c1-c1ccc(Cl)cc1" come in under 1% for %Inh?
Output: Yes

Input: In plain terms, does "Cl.Nc1ncnc2occ(-c3ccc(NC(=O)Nc4cc(C(F)(F)F)ccc4F)cc3)c12" come in under 1% for %Inh?
Output: No

Next:
Input: In plain terms, does COc1ccc(CNC(=O)NC2CCN(c3ccnc(Nc4ccc(OC)cc4)n3)C2)cc1 (centres unmarked) come in under 1% for %Inh?
Output: No

Input: In plain terms, does COc1ccc(Nc2nccc(N3CCC(NC(=O)Nc4cc(C)ccc4C)C3)n2)cc1 (centres unmarked) come in under 1% for %Inh?
Output: No

Input: In plain terms, does "O=C(c1ccc(-c2cc(-c3c[nH]nc3-c3ccccn3)ccn2)cc1)N1CCOCC1" come in under 1% for %Inh?
Output: Yes

Input: In plain terms, does "O=c1cc(N2CCOCC2)nc2n(Cc3cccc(F)c3)ccn12" come in under 1% for %Inh?
Output: Yes

Input: In plain terms, does "c1ccc(-c2n[nH]cc2-c2ccnc3ccccc23)nc1" come in under 1% for %Inh?
Output: No

Input: In plain terms, does "COC(=O)Nc1nc2cc(Oc3ccc(NC(=O)Nc4cc(F)ccc4F)cc3)ccc2[nH]1.Cl" come in under 1% for %Inh?
Output: No

Input: In plain terms, does "Cc1cccc(-c2nc(Nc3ccc4ncsc4c3)c3ccccc3n2)n1" come in under 1% for %Inh?
Output: Yes

Input: In plain terms, does "CN(C1=C(c2ccccc2)C(=O)NC1=O)c1ccccc1" come in under 1% for %Inh?
Output: No

====

Test system: ADCK3
Construct: gene CABC1
Conditions: concentration: 1 μM, replicates: in singlicate; n = 1
Quick reference: %Inh of the listed items.
All answers are understood in %, so give the number only.

Check out these entries, answers already filled in.
Looking up COc1cc(Nc2nccc(N3CCC(NC(=O)c4cccc(NC(C)=O)c4)C3)n2)cc(OC)c1OC (centres unmarked) [GSK1379754] , I see its %Inh listed as 10

Looking up Cl.Cl.Cl.Fc1ccc(-c2ncn(C3CCNCC3)c2-c2ccnc(Nc3ccccc3)n2)cc1 [SB-238039] , I see its %Inh listed as 0

Looking up "CCc1ccnc(/C=C/c2n[nH]c3cc(Sc4ccccc4C(=O)NC)ccc23)c1" , I see its %Inh listed as 0

Looking up CCn1cnc2c(N)ncnc21 [GW345098] , I see its %Inh listed as 19

Next:
Looking up c1ccc(-c2cc(-c3c[nH]nc3-c3ccccn3)ccn2)cc1 [GW576604] , I see its %Inh listed as 1

Looking up NS(=O)(=O)c1cccc(-c2ccc3nccc(-c4cccc(S(N)(=O)=O)c4)c3c2)c1 [GW867253] , I see its %Inh listed as 0

Looking up Fc1ccc(-c2ncn(CCCN3CCOCC3)c2-c2cccnc2)cc1 [SB-211743] , I see its %Inh listed as 1

Looking up NS(=O)(=O)CCc1cccc(Nc2nccc(-c3c(-c4cccc(NC(=O)c5c(F)cccc5F)c4)nn4ccccc34)n2)c1 [GSK336735] , I see its %Inh listed as 9

Looking up O=C1NC(=O)C(N2CCc3ccccc32)=C1c1cccc(Cl)c1 [SB-408010] , I see its %Inh listed as 17

Looking up Cc1nnc(-c2ccc3occ(-c4ccc(C(C)O)cc4)c3c2)o1 (centres unmarked) , I see its %Inh listed as 0

Looking up C[C@@H](Oc1cc(-n2cnc3ccc(NC(=O)NC(C)(C)C)cc32)sc1C(N)=O)c1ccccc1Cl [GSK346294] , I see its %Inh listed as 37

Looking up COc1ccc(COc2cc(-n3cnc4ccccc43)sc2C(N)=O)cc1 [GSK1024304] , I see its %Inh listed as 0

Looking up NCC(NC(=O)c1cc(-c2cn[nH]c2)c(-c2ccnc3[nH]ccc23)s1)c1ccccc1.O=C(O)C(F)(F)F.O=C(O)C(F)(F)F (centres unmarked) [GSK1325775] , I see its %Inh listed as 52

Looking up CCCCCc1nc2c(N)ncnc2n1CCCCC [SKF-97255] , I see its %Inh listed as 1

====

Quick reference: %Inh of the listed items.
System: SgK110
Settings: concentration: 1 μM, replicates: in singlicate; n = 1
All answers are understood in %, so give the number only.

Check out these entries, answers already filled in.
Looking up COc1ccc(CNC(=O)NC2CCN(c3ccnc(Nc4ccc(OC)cc4)n3)C2)cc1 (stereo not drawn) , I see its %Inh listed as 7

Looking up "CSc1ccc(-c2cc3ncnc(SCC(=O)O)c3s2)cc1" , I see its %Inh listed as 0

Looking up "O=C(c1ccc(-c2cc(-c3c[nH]nc3-c3ccccn3)ccn2)cc1)N1CCOCC1" , I see its %Inh listed as 32

Looking up "Cn1cc(-c2ccc3c(c2)CCN3C(=O)Cc2ccccc2Cl)c2c(N)ncnc21" , I see its %Inh listed as 0

Next:
Looking up "CCc1ccnc(/C=C/c2n[nH]c3cc(Sc4ccccc4C(=O)NC)ccc23)c1" , I see its %Inh listed as 47

Looking up COc1cc(Nc2nccc(N3CCC(NC(=O)c4cccc(NC(C)=O)c4)C3)n2)cc(OC)c1OC (stereo not drawn) , I see its %Inh listed as 2

Looking up COc1ccc(Nc2nccc(N3CCC(NC(=O)Nc4cc(C)ccc4C)C3)n2)cc1 (stereo not drawn) , I see its %Inh listed as 0

Looking up "COc1cc2c(cc1OCCN1CCN(C)CC1)ncc1c3ccc(C#N)cc3[nH]c21" , I see its %Inh listed as 0

====

Tested on: RIPK2
Settings: concentration: 1 μM, replicates: in singlicate; n = 1
Quick reference: %Inh of the listed items.
All answers are understood in %, so give the number only.

Check out these entries, answers already filled in.
Looking up "O=c1cc(N2CCOCC2)nc2n(Cc3cccc(F)c3)ccn12" , I see its %Inh listed as 0

Looking up "Cc1cccc(Cn2ccn3c(=O)cc(N4CCOCC4)nc23)c1" , I see its %Inh listed as 11

Looking up "CSc1ccc(-c2cc3ncnc(SCC(=O)O)c3s2)cc1" , I see its %Inh listed as 0

Looking up "CC(C)(C)n1cnc2c(N)ncnc21" , I see its %Inh listed as 0

Looking up "Fc1ccc(-c2ncn(CCCN3CCOCC3)c2-c2cccnc2)cc1" , I see its %Inh listed as 0

Next:
Looking up "Cc1c2ccc(N(C)c3ccnc(Nc4cccc(S(N)(=O)=O)c4)n3)cc2nn1Cc1ccccc1.Cl.Cl" , I see its %Inh listed as 95.9

Looking up Cc1nnc(-c2ccc3occ(-c4ccc(C(C)O)cc4)c3c2)o1 (stereo not drawn) , I see its %Inh listed as 20

Looking up "Cc1ccc(C(=O)NCC(N)=O)cc1-n1c(C)cc(OCc2ccc(F)cc2F)c(Br)c1=O" , I see its %Inh listed as 0

Looking up COc1ccc(CNC(=O)NC2CCN(c3ccnc(Nc4ccc(OC)cc4)n3)C2)cc1 (stereo not drawn) , I see its %Inh listed as 0

Looking up "Cc1cccc(-c2nc(-c3ccc(S(C)(=O)=O)cc3)sc2-c2ccncc2)c1" , I see its %Inh listed as 59

Looking up "CC(C)Oc1ccc2c(-c3ccnc(Nc4ccc(N5CCN(C)CC5)cc4)n3)cnn2n1" , I see its %Inh listed as 15

Looking up "COc1ccc(COc2cc(-n3cnc4ccccc43)sc2C(N)=O)cc1" , I see its %Inh listed as 0
